- TESTED_SYSTEM: butyrylcholinesterase from equine serum (eqBChE, E.C. 3.1.1.8) (Equus caballus)
- Construct: butyrylcholinesterase from equine serum (eqBChE, E.C. 3.1.1.8); purchased Sigma Aldrich; host or cells: equine serum
- Sequence (P81908 whole entry): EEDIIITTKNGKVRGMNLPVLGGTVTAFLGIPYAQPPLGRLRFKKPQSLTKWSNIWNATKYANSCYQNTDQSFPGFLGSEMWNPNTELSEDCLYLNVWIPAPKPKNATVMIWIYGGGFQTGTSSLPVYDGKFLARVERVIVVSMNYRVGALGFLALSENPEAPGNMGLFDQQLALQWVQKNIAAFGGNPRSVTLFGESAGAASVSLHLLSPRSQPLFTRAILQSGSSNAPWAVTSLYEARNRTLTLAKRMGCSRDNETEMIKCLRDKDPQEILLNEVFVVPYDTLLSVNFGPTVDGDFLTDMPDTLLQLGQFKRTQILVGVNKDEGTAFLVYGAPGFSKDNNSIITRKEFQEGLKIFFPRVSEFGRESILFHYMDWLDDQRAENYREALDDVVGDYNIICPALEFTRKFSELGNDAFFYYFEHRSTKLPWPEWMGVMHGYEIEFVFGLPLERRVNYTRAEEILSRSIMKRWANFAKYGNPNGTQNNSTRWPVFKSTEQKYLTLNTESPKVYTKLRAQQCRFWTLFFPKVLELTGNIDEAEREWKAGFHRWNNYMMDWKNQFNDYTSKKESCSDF
- TEST_NAME: biochemical
- TEST_CONTEXT: eqBChE, Ellman assay, triplicate
MEASUREMENT_NAME: IC50
Put your answer as a value accompanied by its unit after it.

Param item = Cc1ccc(Cn2nnc3ccc4sccc4c32)cc1 ; retrieve measured IC50.
24.3 µM

Param item = Cc1cccc(Cn2n[n+](C)c3ccc4sccc4c32)c1 ; retrieve measured IC50.
7 µM

Param item = C[n+]1nn(Cc2ccco2)c2c3ccsc3ccc21 ; retrieve measured IC50.
16.1 µM
